Assay: in vivo
Conditions: male, Sprague-Dawley, rat, ip, 5 mg/kg, AUC0-t
observable: AUC(0-t) (µg·h/mL)

INSERT INTO results (compound, observable, unitlabel, testresult) VALUES
  ('COc1ccc(-c2cc(C(O)C3CCCCN3)c3ccccc3n2)cc1 (stereo not shown) [NSC23925b]', 'AUC(0-t)', 'µg·h/mL', 1.39);

====

Assay: in vivo
Details: male, BALB/c, mouse, in vivo, iv, 5 mg/kg, CL
observable: clearance (mL/min/kg)

INSERT INTO results (compound, testresult) VALUES
  ('CC(=O)O[C@H]1C(=O)[C@@]2(C)[C@H]([C@H](OC(=O)c3ccccc3)[C@]3(O)C[C@H](OC(=O)[C@H](O)[C@@H](NC(=O)c4ccccc4)c4ccccc4)C(C)=C1C3(C)C)[C@]1(OC(C)=O)CO[C@@H]1C[C@@H]2O [Paclitaxel, reference compound]', 33.2);
